# Test system: vasopressor response of angiotensin II
# assayProtocol: AII Challenge: antagonism of angiotensin II vasopressor response;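 further: post-dose Angiotensin II-evoked rise in systolic blood pressure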
# Format: in vivo
# conditionDetails: 5 mg/kg P.O.; AII 0.1 mcg/kg IV; 60 min post dose
measure: Response Average Change (mmHg)
Give bare numbers, in mmHg.

q: Look up Response Average Change for this compound: CCCCc1nc2ccc([C@@H]3C[C@H]4CCCN4O3)cc2c(=O)n1Cc1ccc(-c2ccccc2-c2nnn[nH]2)cc1 (racemic) [Example 57]
a: 29

q: Look up Response Average Change for this compound: CCCCc1nc2ccc([C@@H]3C[C@H]4CCC(C)(C)N4O3)cc2c(=O)n1Cc1ccc(-c2ccccc2-c2nnn[nH]2)cc1 (relative stereo) [Example 61]
a: 35

Report Response Average Change for every entry below.
1. CCCCc1nc2ccc(C3ON4CCCC4C3C(=O)OCC)cc2c(=O)n1Cc1ccc(-c2ccccc2-c2nnn[nH]2)cc1 (centres unmarked) [Example 62]
2. CCCCc1nc2ccc(C3(C)CC4c5ccccc5CCN4O3)cc2c(=O)n1Cc1ccc(-c2ccccc2-c2nnn[nH]2)cc1 (centres unmarked) [Example 64]
3. CCCCc1nc2ccc([C@@]3(C)C[C@@H]4CCC(C)(C)N4O3)cc2c(=O)n1Cc1ccc(-c2ccccc2-c2nnn[nH]2)cc1 (relative stereo) [Example 66]
4. CCCCc1nc2ccc([C@@]3(C)C[C@@H]4CCCN4O3)cc2c(=O)n1Cc1ccc(-c2ccccc2-c2nnn[nH]2)cc1 (relative stereo) [Example 58]
5. CCCCc1nc2ccc([C@]3(C)C[C@@H]4CCCN4O3)cc2c(=O)n1Cc1ccc(-c2ccccc2-c2nnn[nH]2)cc1 (relative stereo) [Example 59]
6. CCCCc1nc2ccc([C@@H]3C[C@H]4c5ccccc5CCN4O3)cc2c(=O)n1Cc1ccc(-c2ccccc2-c2nnn[nH]2)cc1 (relative stereo) [Example 63]

a:
1. 43.5
2. 23.5
3. 17.5
4. 0
5. 12.5
6. 42.5
